# target.or.test.system: T1, in-line fusion protein of human IL-36R extracellular domain and IL1RAcP extracellular domain expressed with … (human; mouse, UniProt Q9HB29 20-337; Q9NPH3 21-359, limits assumed)
# T1 construct: not shown: mouse IgG2a Fc
# T1 sequence (looked up): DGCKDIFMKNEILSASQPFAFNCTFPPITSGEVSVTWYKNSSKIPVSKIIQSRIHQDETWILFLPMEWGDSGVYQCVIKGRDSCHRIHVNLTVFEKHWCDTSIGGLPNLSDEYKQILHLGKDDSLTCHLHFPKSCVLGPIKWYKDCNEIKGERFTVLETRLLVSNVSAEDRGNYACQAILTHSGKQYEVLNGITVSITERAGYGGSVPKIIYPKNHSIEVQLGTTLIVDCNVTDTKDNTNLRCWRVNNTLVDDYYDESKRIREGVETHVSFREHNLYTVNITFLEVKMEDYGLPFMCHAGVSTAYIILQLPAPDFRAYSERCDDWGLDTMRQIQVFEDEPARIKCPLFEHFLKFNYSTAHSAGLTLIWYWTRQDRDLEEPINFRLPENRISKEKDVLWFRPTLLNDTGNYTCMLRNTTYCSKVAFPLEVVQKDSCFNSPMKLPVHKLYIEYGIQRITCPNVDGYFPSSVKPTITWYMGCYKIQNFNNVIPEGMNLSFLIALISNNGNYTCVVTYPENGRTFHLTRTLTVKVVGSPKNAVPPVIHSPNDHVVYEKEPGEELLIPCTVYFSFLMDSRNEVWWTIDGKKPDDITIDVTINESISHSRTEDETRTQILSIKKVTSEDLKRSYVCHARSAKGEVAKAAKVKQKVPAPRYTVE
# experimental.protocol: SPR Biacore 4000, mAb captured on anti-hFc, 25C
pKd: −log10 of the molar value.
readout.name: pKd

[[record]]
binder = "H4H14700P2 (antibody, human IgG4 S228P, kappa, V domains shown, Fully human anti-IL-36R antibody) VH: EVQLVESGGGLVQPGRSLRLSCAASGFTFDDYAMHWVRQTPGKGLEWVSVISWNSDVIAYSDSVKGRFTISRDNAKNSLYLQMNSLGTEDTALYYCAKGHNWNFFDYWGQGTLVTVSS VL: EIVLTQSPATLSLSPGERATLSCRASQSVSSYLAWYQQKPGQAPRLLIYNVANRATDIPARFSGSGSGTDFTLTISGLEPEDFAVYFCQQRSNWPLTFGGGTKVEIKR"
readout_name = "pKd"
value_observed = 9.55

